Values were extracted from the supplement of paper PMC12764529.

Assay info: folding stability dG unfold (combined trypsin and chymotrypsin); higher = more stable
Readout label: folding stability dG unfold (kcal/mol)

In [3]: df
Out[3]:
                           residue_sequence                readout_label      unit  censoring_qualifier  measured_value
0  SAGGSAGGSAGGSNDNVVPITILFVDPGKDDRLYLREIRLRIYENGDIEAEVKVYELPLSAGGSAGGSAGGS [r10_598_TrMRF]  folding stability dG unfold  kcal/mol                    =            3.68
1  SAGGSAGGMVVGILTITDPATGSSETLVIPMPSEEEAVERAKELAEELEAKKGKIVKVEIRPRPSAGGSAGG [r6_787_JUSTAS]  folding stability dG unfold  kcal/mol                    =            1.32
2  SAGGSAGGSAMTVYVPIEEVGPDENGEYDDELIRERVREEYPDEPVEEVLVEGPEEAERVARSAGGSAGGSA [r18_72_JUSTAS]  folding stability dG unfold  kcal/mol                    =          -0.384
3  SAGGSAGGPKPAKIKEVPFKMRHPGNGQPHKMEIKEVRPDGMIEIDFPNGEEHRIPGMKIDEIESAGGSAGG [r6_435_TrROS]  folding stability dG unfold  kcal/mol                    <              -1
4  SAGGKGPKKIILPLKFKIKTKPNEKKSKIKFKLSLKLFPKAKKVEVKSSIKPLKNNYALLDFDIVIEASAGG [r13_872_TrMRF]  folding stability dG unfold  kcal/mol                    =            3.56
5  SMPAEMSPEEVREAVRALVEEALAANPGEPVTVPIEEIRAALPGYSPEVLREVLGLTEEEIAAGPVTLRLSA [r9_525_JUSTAS]  folding stability dG unfold  kcal/mol                    =           0.483
6  SAGGSAGGSAGGVVVVEVEIRLSDEEIEALKDLGISAEDLTLRVTVVVELPPPPPAEEESAGGSAGGSAGGS [r10_1149_TrROS_Hall]  folding stability dG unfold  kcal/mol                    =             1.5
